system: recovered yeast (slurry yeast recovered from the beer fermentation step); assay: Methylene Blue staining ratio (mortality) of yeast before drying or after drying and reconstitution with water; assay type: cell-based; conditions: sugar/sugar alcohol (about 20% solution, 20° C., 3 hours) as substitute for trehalose, then 300 g/L glycerol; dried at 5° C.
Reported values of Methylene Blue-staining ratio (%) after reconstitution with water for individual entries
READOUT LABEL: Methylene Blue-staining ratio (%) after reconstitution with water

[[record]]
compound = "OC[C@H]1O[C@@](CO)(O[C@H]2O[C@H](CO)[C@@H](O)[C@H](O)[C@H]2O)[C@@H](O)[C@@H]1O"
readout_value = 51.9

[[record]]
compound = "O=C[C@H](O)[C@@H](O)[C@H](O)CO"
readout_value = 37.7

[[record]]
compound = "OC[C@@H](O)[C@@H](O)[C@H](O)[C@H](O)CO"
readout_value = 37.1

[[record]]
compound = "OC[C@H]1O[C@@H](O[C@H]2[C@H](O)[C@@H](O)C(O)O[C@@H]2CO)[C@H](O)[C@@H](O)[C@H]1O (stereo partly shown)"
readout_value = 38.6

[[record]]
compound = "O=C[C@H](O)[C@@H](O)[C@H](O[C@@H]1O[C@H](CO)[C@@H](O)[C@H](O)[C@H]1O)[C@H](O)CO"
readout_value = 54.8

[[record]]
compound = "O=C[C@H](O)[C@@H](O)[C@@H](O)[C@H](O)CO"
readout_value = 40.6

[[record]]
compound = "OC[C@@H](O)[C@@H](O[C@H]1O[C@H](CO)[C@@H](O)[C@H](O)[C@H]1O)[C@H](O)[C@@H](O)CO"
readout_value = 29.7

[[record]]
compound = "OC1OC[C@@H](O[C@@H]2OC[C@@H](O)[C@H](O)[C@H]2O)[C@H](O)[C@H]1O (stereo partly shown)"
readout_value = 46.5

[[record]]
compound = "OC[C@@H](O)[C@H](O)[C@@H](O)CO"
readout_value = 41.6

[[record]]
compound = "O=C(CO)[C@@H](O)[C@H](O)[C@H](O)CO"
readout_value = 51.1

[[record]]
compound = "OC[C@H]1O[C@H](O[C@H]2[C@H](O)[C@@H](O)[C@H](O)O[C@@H]2CO)[C@H](O)[C@@H](O)[C@@H]1O"
readout_value = 56.4

[[record]]
compound = "OC[C@H]1O[C@H](O[C@H]2O[C@H](CO)[C@@H](O)[C@H](O)[C@H]2O)[C@H](O)[C@@H](O)[C@@H]1O"
readout_value = 32.2

[[record]]
compound = "OC[C@@H](O)[C@@H](O)[C@H](O)[C@@H](O)CO"
readout_value = 41.8

